Value source: patent US20250059182A1

EXPERIMENTAL TARGET: recombinant human SOS1 polypeptide (amino acids 560-1049) (Homo sapiens)
Construct: corresponding to amino acids 560-1049, expressed in E. Coli; made in house; host or cells: E. coli
Sequence (Q07889 560-1049): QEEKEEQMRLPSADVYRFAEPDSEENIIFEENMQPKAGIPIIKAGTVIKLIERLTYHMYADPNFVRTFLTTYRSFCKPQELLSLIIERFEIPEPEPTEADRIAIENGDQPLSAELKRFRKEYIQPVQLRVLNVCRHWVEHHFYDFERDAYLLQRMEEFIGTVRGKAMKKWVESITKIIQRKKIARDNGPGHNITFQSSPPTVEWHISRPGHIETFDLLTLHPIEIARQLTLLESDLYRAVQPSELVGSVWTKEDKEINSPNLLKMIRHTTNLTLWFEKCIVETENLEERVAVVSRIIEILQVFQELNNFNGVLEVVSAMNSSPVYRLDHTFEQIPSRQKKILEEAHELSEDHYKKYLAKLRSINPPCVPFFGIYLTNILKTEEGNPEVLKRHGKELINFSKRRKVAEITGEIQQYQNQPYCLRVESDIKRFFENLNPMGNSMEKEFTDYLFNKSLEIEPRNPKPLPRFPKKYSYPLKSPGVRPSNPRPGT
TEST: HTRF displacement assay: inhibition of labeled tracer binding to SOS1
STUDY CONDITIONS: Table A, Morrison equation for competitive binding
Could you please report measured log10 Ki for the items listed next?
// stored as log10 of Ki expressed in nM

// known answers, use as guide
Cc1c(C#N)cccc1[C@@H](C)Nc1nnc(C)c2cnc(N(C)C3CCN(C)CC3)cc12 :: -0.09
Cc1c(C#N)cccc1[C@@H](C)Nc1nnc(C)c2cc(F)c(N3C[C@@H]4C[C@H]3CN4C)cc12 [Example 4-14] :: 0.06
Cc1c(C#N)cccc1[C@@H](C)Nc1nnc(C)c2cnc(N(C)[C@H]3CCOC3)cc12 :: 0.67
Cc1c(C#N)cccc1[C@@H](C)Nc1nnc(C)c2cnc(N(C)[C@H]3CCNC3)cc12 :: -0.06
CCN1CCN(c2cc3c(N[C@H](C)c4cccc(C#N)c4C)nnc(C)c3cn2)[C@@H](C)C1 :: -0.10

Give one value of log10 Ki per listed compound.
1. Cc1c(C#N)cccc1[C@@H](C)Nc1nnc(C)c2cc(F)c(N(C)C3CCN(C)CC3)cc12
2. Cc1c(C#N)cccc1[C@@H](C)Nc1nnc(C)c2cnc(N3CC4(CN(C)C4)C3)cc12

Completion:
1. 0.52
2. -0.45
